Biological target: IDH R132C (Homo sapiens, UniProt O75874, R132C)
Construct: expressed in transfected cells; host or cells: U87 cells
Sequence (O75874 whole entry R132C): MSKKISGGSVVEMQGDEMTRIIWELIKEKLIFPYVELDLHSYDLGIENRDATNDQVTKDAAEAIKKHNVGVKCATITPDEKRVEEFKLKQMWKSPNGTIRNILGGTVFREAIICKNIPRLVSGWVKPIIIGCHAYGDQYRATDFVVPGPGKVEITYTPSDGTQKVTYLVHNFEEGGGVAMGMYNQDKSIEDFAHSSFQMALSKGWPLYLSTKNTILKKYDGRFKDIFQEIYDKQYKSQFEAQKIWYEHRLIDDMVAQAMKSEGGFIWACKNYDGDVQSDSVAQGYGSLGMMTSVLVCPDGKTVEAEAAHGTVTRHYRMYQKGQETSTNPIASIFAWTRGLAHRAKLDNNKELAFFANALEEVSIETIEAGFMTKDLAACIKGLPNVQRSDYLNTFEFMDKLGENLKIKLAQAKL
Experiment: Detection of 2-HG in supernatant of U87-IDH R132C cells
Assay type: cell-based
Settings: 100 nM compound, 72 h, LC-MS-MS, vs control; read-out: Inhibition rate of compounds on 2-HG in the supernatant of U87-IDH R132C cells, 100 nM
measurementLabel: inhibition at 0.1 µM

C=CC(=O)N(C)C1CN(C(CC2CC2)c2ccc([C@H](C)Nc3ncc4c(n3)N(C(C)C)C(=O)OC4)cc2)C1 (stereo partly drawn) [Compound 25]: > 90%

Determine its reported inhibition at 0.1 µM: C=CC(=O)N1CCN([C@H](CC23CC(C2)C3)c2ccc([C@H](C)Nc3ncc4c(n3)N(CC)C(=O)OC4)cc2)CC1 [Compound 157-2]
> 90%

Determine its reported inhibition at 0.1 µM: C=CC(=O)N1CCN(C(CC2CCC2)c2ccc([C@H](C)Nc3ncc4c(n3)N(C(C)C)C(=O)OC4)cc2)CC1 (stereo partly drawn) [Compound 143]
> 90%

----------
Target: IDH R132C (Homo sapiens, UniProt O75874, R132C)
Construct: expressed in transfected cells; host or cells: U87 cells
Assay: Detection of 2-HG in supernatant of U87-IDH R132C cells
Assay type: cell-based
Settings: 10 nM compound, 72 h, LC-MS-MS, vs control; read-out: Inhibition rate of compounds on 2-HG in the supernatant of U87-IDH R132C cells, 10 nM
measurementLabel: inhibition at 0.01 µM

Study these solved cases before continuing.
C=CC(=O)N1CC2(C1)CN(C(CC1(C)CC1)c1ccc([C@H](C)Nc3ncc4c(n3)N(CC)C(=O)OC4)cc1)C2 (stereo partly shown): > 90%
C=CC(=O)N1CCN(C(CC(C)(C)C)c2ccc([C@H](C)Nc3ncc4c(n3)N(C(C)C)C(=O)OC4)cc2)CC1 (stereo partly shown): 60 to 90%
C=CC(=O)N(C)C1CN(C(CC2CC2)c2ccc([C@H](C)Nc3ncc4c(n3)N(C(C)C)C(=O)OC4)cc2)C1 (stereo partly shown): > 90%

Determine its reported inhibition at 0.01 µM: C=CC(=O)N1CC2(C1)CN(C(CC13CC(C1)C3)c1ccc([C@H](C)Nc3ncc4c(n3)N(CC)C(=O)NC4)cc1)C2 (stereo partly shown)
> 90%

Determine its reported inhibition at 0.01 µM: C=CC(=O)N1CCN(C(CC2CCC2)c2ccc([C@H](C)Nc3ncc4c(n3)N(C(C)C)C(=O)OC4)cc2)CC1 (stereo partly shown)
60 to 90%

Determine its reported inhibition at 0.01 µM: C=CC(=O)N1CCN(C(CC2CC2)c2ccc(C3(Nc4ncc5cnc(=O)n(C(C)C)c5n4)CC3)cc2)CC1 (stereo not shown)
60 to 90%

Determine its reported inhibition at 0.01 µM: C=CC(=O)N1CCN([C@@H](CC2CC2)c2ccc([C@H](C)Nc3ncc4c(n3)N(CC)C(=O)OC4)cc2)CC1 [LY-3410738, reference compound]
> 90%

----------
System: 2-HG in HT1080 tumor tissues
Assay: Detection of 2-HG in HT1080 tumor tissues of nude mice
Assay type: in vivo
Conditions: Mus musculus, HT-1080, sc, 168 h, subcutaneous HT1080, 20 mg/kg, seven days of continuous administration, read-out: Inhibition rate of compounds on 2-HG in HT1080 tumor tissues, 7 days
Attribute: inhibition in vivo at 20 mg/kg
Express it in %; write the number only.

C=CC(=O)N1CCN(C(CC2CCC2)c2ccc([C@H](C)Nc3ncc4c(n3)N(CC)C(=O)OC4)cc2)CC1 (some centres unmarked): 99
C=CC(=O)N1CC2(C1)CN(C(CC1CC1)c1ccc([C@H](C)Nc3ncc4c(n3)N(CC)C(=O)OC4)cc1)C2 (some centres unmarked): 95
C=CC(=O)NC1CCN(C(CC2CC2)c2ccc([C@H](C)Nc3ncc4cnc(=O)n(C(C)C)c4n3)cc2)CC1 (some centres unmarked): 78
C=CC(=O)N1CCN(C(CC2CC2)c2ccc([C@H](C)Nc3ncc4c(n3)N(C(C)C)C(=O)NC4)cc2)CC1 (some centres unmarked): 97
C=CC(=O)N1CCN(C(CC2CC2)c2ccc([C@H](C)Nc3ncc4cnc(=O)n(C(C)C)c4n3)cc2)CC1 (some centres unmarked): 94
C=CC(=O)N1CCN([C@@H](CC2CC2)c2ccc([C@H](C)Nc3ncc4c(n3)N(CC)C(=O)OC4)cc2)CC1 [LY-3410738, reference compound]: 88

Determine its reported inhibition in vivo at 20 mg/kg: C=CC(=O)N1CCN(C(CC23CC(C2)C3)c2ccc([C@H](C)Nc3ncc4c(n3)N(CC)C(=O)NC4)cc2)CC1 (some centres unmarked)
92

Determine its reported inhibition in vivo at 20 mg/kg: C=CC(=O)N1CCN(C(CC23CC(C2)C3)c2ccc([C@H](C)Nc3ncc4c(n3)N(CC)C(=O)OC4)cc2)CC1 (some centres unmarked)
90

----------
Target: IDH R132C (Homo sapiens, UniProt O75874, R132C)
Construct: expressed in transfected cells; host or cells: U87 cells
Test: Detection of 2-HG in supernatant of U87-IDH R132C cells
Assay type: cell-based
Details: 10 nM compound, 72 h, LC-MS-MS, vs control; read-out: Inhibition rate of compounds on 2-HG in the supernatant of U87-IDH R132C cells, 10 nM
measurementLabel: inhibition at 0.01 µM

Study these solved cases before continuing.
C=CC(=O)N1CCN([C@H](CC23CC(C2)C3)c2ccc([C@H](C)Nc3ncc4c(n3)N(CC)C(=O)OC4)cc2)CC1: 60 to 90%
C=CC(=O)NC1CN(C(CC2CC2)c2ccc([C@H](C)Nc3ncc4c(n3)N(CC)C(=O)OC4)cc2)C1 (stereo partly shown): > 90%
C=CC(=O)N(C)C1CCN(C(CC2CC2)c2ccc([C@H](C)Nc3ncc4c(n3)N(CC)C(=O)OC4)cc2)CC1 (stereo partly shown): 60 to 90%

Please look at the following compound next.
Write down measured inhibition at 0.01 µM (IDH R132C (Homo sapiens, UniProt O75874, R132C)) for this compound. C=CC(=O)N1CCN(C(CC2CC2)c2ccc([C@H](C)Nc3ncc4cnc(=O)n(C(C)C)c4n3)cc2)CC1 (stereo partly shown)
> 90%

----------
Attribute: inhibition at 0.01 µM
Target: IDH R132C (Homo sapiens, UniProt O75874, R132C)
Construct: expressed in transfected cells; host or cells: U87 cells
Assay: Detection of 2-HG in supernatant of U87-IDH R132C cells
Assay type: cell-based
Settings: 10 nM compound, 72 h, LC-MS-MS, vs control; read-out: Inhibition rate of compounds on 2-HG in the supernatant of U87-IDH R132C cells, 10 nM

Study these solved cases before continuing.
C=CC(=O)N1CCN([C@@H](CC23CC(C2)C3)c2ccc([C@H](C)Nc3ncc4c(n3)N(CC)C(=O)OC4)cc2)CC1: > 90%
C=CC(=O)N1CCN(C(CC2CC2)c2ccc([C@H](C)Nc3ncc4c(n3)N(C(C)C)C(=O)NC4)cc2)CC1 (stereo partly drawn): 60 to 90%
C=CC(=O)N(C)C1CCN(C(CC2CC2)c2ccc(C3(Nc4ncc5c(n4)N(CC)C(=O)OC5)CC3)cc2)CC1 (stereo not drawn): 60 to 90%
N#Cc1ccnc(N2C(=O)CC[C@H]2C(=O)N(c2cncc(F)c2)[C@H](C(=O)NC2CC(F)(F)C2)c2ccccc2Cl)c1 [Ivosidenib, ivosidenib, reference compound]: < 30%
C=CC(=O)N(C)C1CN(C(CC2CC2)c2ccc(C3(Nc4ncc5c(n4)N(CC)C(=O)OC5)CC3)cc2)C1 (stereo not drawn): 60 to 90%

Please look at the following compound next.
Determine its reported inhibition at 0.01 µM: C=CC(=O)N1CC2(C1)CN(C(CC1CC1)c1ccc([C@H](C)Nc3ncc4c(n3)N(CC(C)C)C(=O)OC4)cc1)C2 (stereo partly drawn)
60 to 90%

----------
Target: IDH R132C (Homo sapiens, UniProt O75874, R132C)
Construct: expressed in transfected cells; host or cells: U87 cells
Assay: Detection of 2-HG in supernatant of U87-IDH R132C cells
Format: cell-based
Settings: 1 nM compound, 72 h, LC-MS-MS, vs control; read-out: Inhibition rate of compounds on 2-HG in the supernatant of U87-IDH R132C cells, 1 nM
measurementLabel: inhibition at 0.001 µM

C=CC(=O)N1CC2(C1)CN([C@H](CC13CC(C1)C3)c1ccc([C@H](C)Nc3ncc4c(n3)N(CC)C(=O)OC4)cc1)C2: 30 to 60%
C=CC(=O)NC1CCN(C(CC2CC2)c2ccc(C3(Nc4ncc5c(n4)N(CC)C(=O)OC5)CC3)cc2)CC1 (centres unmarked): 30 to 60%
C=CC(=O)N1CCN(C(CC(C)C)c2ccc([C@H](C)Nc3ncc4cnc(=O)n(CC)c4n3)cc2)CC1 (some centres unmarked): 60 to 90%
C=CC(=O)N1CCN([C@@H](CC23CC(C2)C3)c2ccc([C@H](C)Nc3ncc4c(n3)N(CC)C(=O)OC4)cc2)CC1: 60 to 90%
C=CC(=O)N1CC2(C1)CN(C(CC1(C)CC1)c1ccc([C@H](C)Nc3ncc4c(n3)N(CC)C(=O)OC4)cc1)C2 (some centres unmarked): 30 to 60%
C=CC(=O)N1CC2(C1)CN([C@@H](CC13CC(C1)C3)c1ccc([C@H](C)Nc3ncc4c(n3)N(CC)C(=O)OC4)cc1)C2: 60 to 90%

Write down measured inhibition at 0.001 µM (IDH R132C (Homo sapiens, UniProt O75874, R132C)) for this molecule. C=CC(=O)N1CC2(C1)CN(C(CC)c1ccc([C@H](C)Nc3ncc4c(n3)N(C(C)C)C(=O)OC4)cc1)C2 (some centres unmarked)
60 to 90%

Write down measured inhibition at 0.001 µM (IDH R132C (Homo sapiens, UniProt O75874, R132C)) for this molecule. C=CC(=O)N1CCN([C@H](CC2CC2)c2ccc([C@H](C)Nc3ncc4cnc(=O)n(CC)c4n3)cc2)CC1
30 to 60%

Write down measured inhibition at 0.001 µM (IDH R132C (Homo sapiens, UniProt O75874, R132C)) for this molecule. C=CC(=O)N1CCN([C@@H](CC)c2ccc([C@H](C)Nc3ncc4cnc(=O)n(CC)c4n3)cc2)CC1
60 to 90%

Write down measured inhibition at 0.001 µM (IDH R132C (Homo sapiens, UniProt O75874, R132C)) for this molecule. C=CC(=O)N1CC2(C1)CN([C@H](CC13CC(C1)C3)c1ccc([C@H](C)Nc3ncc4c(n3)N(CC)C(=O)NC4)cc1)C2
30 to 60%

Write down measured inhibition at 0.001 µM (IDH R132C (Homo sapiens, UniProt O75874, R132C)) for this molecule. C=CC(=O)N1CCN(C(CC2CC2)c2ccc(C3(Nc4ncc5c(n4)N(CC)C(=O)OC5)CC3)cc2)CC1 (centres unmarked)
30 to 60%

Write down measured inhibition at 0.001 µM (IDH R132C (Homo sapiens, UniProt O75874, R132C)) for this molecule. C=CC(=O)N1CCN(C(CC2CC2)c2ccc([C@H](C)Nc3ncc4cnc(=O)n(CC)c4n3)cc2)CC1 (some centres unmarked)
60 to 90%

Write down measured inhibition at 0.001 µM (IDH R132C (Homo sapiens, UniProt O75874, R132C)) for this molecule. C=CC(=O)N1CCN(C(CC2CC2)c2ccc([C@H](C)Nc3ncc4c(n3)N(C(C)C)C(=O)NC4)cc2)CC1 (some centres unmarked)
30 to 60%

Write down measured inhibition at 0.001 µM (IDH R132C (Homo sapiens, UniProt O75874, R132C)) for this molecule. C=CC(=O)N1CC2(C1)CN(C(CC1CC1)c1ccc([C@H](C)Nc3ncc4c(n3)N(CCC)C(=O)OC4)cc1)C2 (some centres unmarked)
30 to 60%

Attribution: patent US12559505B2
